# System: NCI-H460 lung
# TEST: NCI-60 one-dose screen, 48 h
# EXPERIMENTAL PARAMETERS: 10 µM unless noted
# Method: Growth inhibition of the NCI-H460 human Non-Small Cell Lung tumor cell line is measured as a screen for anti-cancer activity. Cells are grown in 96 well plates and exposed to the test compound for 48 hours. Compounds are tested at a single concentration, which is 10^-5 M for most compounds. The reported endpoint is percent growth (GI% or GIPRCNT), where numbers from 0 - 100% represent growth inhibition, and numbers from -100% - 0 represent cell death. […]
Compounds without any hit were thinned out: in the full panel of roughly 83,000, 20% have a hit. Activity calls are given as the source filed them. Rule for the calls: active = growth percent below 10; inactive = the rest.
Hi there, use one of these labels in your reply, thanks! YES = active, NO = inactive

Take a look at these entries with their results.
COMPOUND	MEASURED ON	LABEL VALUE
O=c1oc2cc(OS(=O)(=O)c3ccccc3)c(Cl)cc2c2c1CCCCCC2	NCI-H460 lung	NO
N#Cc1ncc(-c2ccc(F)c(F)c2F)c(NC2CCCCCC2)n1	NCI-H460 lung	NO

Asked: // return assay outcome for `O=C(O)c1cn(C2CC2)c2cc(N3CCN(S(=O)(=O)c4ccc(Cl)c(Cl)c4)CC3)c(F)cc2c1=O`
Given back: YES

---

# Tested on: TK-10 renal
# TEST: NCI-60 one-dose screen, 48 h (100 = growth as untreated, 0 = no growth, -100 = all killed)
# EXPERIMENTAL PARAMETERS: 10 µM unless noted
About 83,000 compounds went through this panel and 20% of them were active in at least one assay; those are over-represented in the sample as a whole.
PARAMETER: growth (%)
Express your answer in %, writing the number without its unit.

Reference set, count: 5
MOLECULE	growth, %
COc1ccc(C2=CC(c3ccc(Oc4ccnc5cc(Cl)ccc45)c(OC)c3)c3c(nc(OC)[nH]c3=O)N2)cc1 (stereo not given)	98.5
CCCCCCCCCN1C(=O)/C(=c2\sc3n(c2=O)C2C(NN=3)N(CC)C(=O)N2CC)c2ccccc21 (stereo not given)	71.1
O=C1c2ccccc2C(=O)c2c(N=Nc3sc(=O)[nH]c3S)cccc21	138
COc1ccc(/C=C\c2cc(OC)c(OC)c(OC)c2)c(NS(=O)(=O)c2ccc(C(C)(C)C)cc2)c1O	50.8
c1ccn2nnnc2c1	96.4

Asked: Hi! What's the reported growth for `CCCS(=O)(=O)c1nc(NC2CC2)cc(-c2ccc3c(ccn3C3CC(C)(C)NC(C)(C)C3)c2)n1` on TK-10 renal?
Given back: -56

Asked: Hi! What's the reported growth for `CC(=O)Nc1nc(C(=O)N2N=C(C)/C(=C/c3ccccc3)C2=O)cs1` on TK-10 renal?
Given back: 107

Asked: Hi! What's the reported growth for `COc1ccc([N+](=O)[O-])c(/C=C/C(=O)c2ccccn2)c1` on TK-10 renal?
Given back: 126

Asked: Hi! What's the reported growth for `CC/C=C\C/C=C\C[C@H]1C/C=C2/C(=O)C=C[C@H]2C/C=C\CCC(=O)O1` on TK-10 renal?
Given back: 2.67

Asked: Hi! What's the reported growth for COc1cc(C2C=C(C)N=C3SC=CN32)cc(OC)c1OC (stereo not given) on TK-10 renal?
Given back: 107

Asked: Hi! What's the reported growth for `COc1cccc(/C=C/C(=O)c2sc(Nc3ccc(O)cc3)nc2C)c1` on TK-10 renal?
Given back: 114

Asked: Hi! What's the reported growth for `NC(=O)NNC(=O)c1ccccc1` on TK-10 renal?
Given back: 103

Asked: Hi! What's the reported growth for `CCNc1nc(N2CC(=O)Nc3cc(OC)ccc32)c2ccccc2n1` on TK-10 renal?
Given back: 21.3

Asked: Hi! What's the reported growth for `O=c1oc2cc(OS(=O)(=O)c3ccccc3)c(Cl)cc2c2c1CCCCCC2` on TK-10 renal?
Given back: 111

Asked: Hi! What's the reported growth for `CN1CCN(CCCOc2ccc3nc(Nc4ccc(C(F)(F)F)c(Cl)c4)ccc3c2)CC1` on TK-10 renal?
Given back: 18.9

Asked: Hi! What's the reported growth for `COc1cc(-c2n[nH]nc2-c2ccc3c(c2)OCCO3)cc(OC)c1OC` on TK-10 renal?
Given back: 52.4

Asked: Hi! What's the reported growth for COc1ccc(/C=C2\CCCC3=C2NC(C)=NC3c2ccc(OC)c(OC)c2)cc1OC (stereo not given) on TK-10 renal?
Given back: 12.2

Asked: Hi! What's the reported growth for `Cc1sc2nc(CSc3nnc(-c4ccco4)o3)[nH]c(=O)c2c1C` on TK-10 renal?
Given back: 189

Asked: Hi! What's the reported growth for `O=S(=O)(NCCCNc1cc(-c2cn(-c3ccccc3)nc2-c2cccc(O)c2)ccn1)c1cccc(F)c1` on TK-10 renal?
Given back: 58.9

Asked: Hi! What's the reported growth for `COc1cc(-c2csc(NC(=O)Nc3ccc(Cl)cc3Cl)n2)cc(OC)c1OC` on TK-10 renal?
Given back: 54.6

Asked: Hi! What's the reported growth for NC(=O)c1c(NC(=O)c2ccc(OCC3CCCO3)cc2)sc2c1CCCC2 (stereo not given) on TK-10 renal?
Given back: 126

Asked: Hi! What's the reported growth for CCOC(=O)C(Cc1ccccc1)n1c(O)c(C=Nc2ccc(C(=O)OCCN(CC)CC)cc2)sc1=O (stereo not given) on TK-10 renal?
Given back: 112

Asked: Hi! What's the reported growth for `CCC#CC[C@H]1C/C=C2/C(=O)C=C[C@@H]2C/C=C\CCCC(=O)O1` on TK-10 renal?
Given back: -1.68

Asked: Hi! What's the reported growth for C#CCN1C(=O)/C(=c2\sc3n(c2=O)C2C(NN=3)N(CC)C(=O)N2CC)c2ccccc21 (stereo not given) on TK-10 renal?
Given back: 39.7

---

# System: COLO 205 colon
# TEST: NCI-60 one-dose screen, 48 h (100 = growth as untreated, 0 = no growth, -100 = all killed)
# EXPERIMENTAL PARAMETERS: 10 µM unless noted
Compounds without any hit were thinned out: in the full panel of roughly 83,000, 20% have a hit.
Parameter growth: see the listing below.
Express your answer in %, writing the number without its unit.

COMPOUND	growth (%)
Nc1nn2cc(-c3ccc(Cl)s3)nc2c2ccccc12	95.2
CN(C)c1nc(N)c(N=O)c(N)n1	127
O=C(C[N+](=O)[O-])c1ccc(Cl)cc1	116
CC(=O)C1CCC(C)=CC1=O (stereo not given)	116

Asked: GET /values?readout=growth&item= Cc1cc2c(c(=O)o1)C(c1ccc(OC(=O)N3CCOCC3)cc1)C(C#N)=C(N)O2 (stereo not given)
Given back: 118

Asked: GET /values?readout=growth&item= `N#Cc1c(NC(=O)c2ccc([N+](=O)[O-])o2)[n+]([O-])c2cc(F)c(F)cc2[n+]1[O-]`
Given back: 132

Asked: GET /values?readout=growth&item= `CCNC(=O)CCCCC(=O)c1c(C)[nH]c(/C=C2\N=C(c3ccc[nH]3)C=C2OC)c1C`
Given back: 1.23

---

# Tested on: SF-539 CNS
# TEST: NCI-60 one-dose screen, 48 h (100 = growth as untreated, 0 = no growth, -100 = all killed)
# EXPERIMENTAL PARAMETERS: 10 µM unless noted
This is part of a sample that, as a whole, favours compounds with a hit. Of some 83,000 tested, about 20% had one in any assay.
For each record, check the reported growth: if it is below 70% write condition met, else write condition not met.

Take a look at these entries with their results.
MOLECULE	MEASURED ON	LABEL VALUE
COc1cccc(-c2nc3sccn3c2-c2ccnc(NCCNS(=O)(=O)c3ccccc3)n2)c1	SF-539 CNS	condition not met
CCN(C(=O)c1cc2ncccc2[nH]1)[C@H]1CCC[C@@H](NCc2cccc(F)c2)C1	SF-539 CNS	condition not met
COc1ccc(C(=O)c2cc(OC)c(OC)c(OC)c2)cc1/C=C/C(=O)c1ccc(O)cc1	SF-539 CNS	condition met
COc1cc2nc(Cl)nc(NCCO)c2cc1OC	SF-539 CNS	condition not met
O=C(O)c1ccc(-n2c(=O)c3ccccc3c3ccccc3c2=O)cc1	SF-539 CNS	condition not met

Now look at this entry.
Asked: Please indicate whether the reported growth of `COc1ccc(-c2nc3sccn3c2-c2ccnc(NCCCNS(=O)(=O)c3ccc(C)cc3)n2)cc1` is strictly below 70%.
Given back: condition met

---

# System: OVCAR-3 ovarian
# TEST: NCI-60 one-dose screen, 48 h (100 = growth as untreated, 0 = no growth, -100 = all killed)
# EXPERIMENTAL PARAMETERS: 10 µM unless noted
The panel holds about 83,000 compounds, 20% with a hit somewhere; the sample as a whole holds those more often.
PARAMETER: growth (%)
Express your answer in %, writing the number without its unit.

Reference set, count: 4
COMPOUND	growth / %
Nc1nc(Cl)c2c(ncn2Cc2ccc(CCl)cc2)n1	68.3
COc1cc(NCCN=C(N)NC(N)=NC(C)C)c2ncccc2c1	6.45
COc1cc(CCn2nnc3c(NCCCCO)ncnc32)cc(OC)c1	107
O=C1NC(Cc2c[nH]c3ccccc23)C(=O)N1Cc1ccc(Cl)cc1 (stereo not drawn)	106

Asked: GET /values?readout=growth&item= `CCN(CC)CCCNc1nc(C)cc(Nc2ccc3nc(C)cc(N)c3c2)n1`
Given back: 106

Asked: GET /values?readout=growth&item= `O=c1oc2c([nH]c3ccc4ccccc4c32)c2ccccc12`
Given back: 109

Asked: GET /values?readout=growth&item= `CCc1cccc(C)c1NC(=O)c1sc2nc3c(cc2c1N)C(=O)CCC3`
Given back: -26

Asked: GET /values?readout=growth&item= `O=C(CSc1nc(-c2ccc(Cl)cc2)cn1-c1ccc(Cl)cc1)c1ccc(Br)cc1`
Given back: 84.9

Asked: GET /values?readout=growth&item= `Cc1cc(C(=O)O)c(N)c(C)n1`
Given back: 110

Asked: GET /values?readout=growth&item= `CC(C)[C@H](CO)Nc1nc(Nc2ccc(C(=O)NCCNS(=O)(=O)c3cccc4c(N(C)C)cccc34)c(Cl)c2)c2ncn(C(C)C)c2n1`
Given back: 20.2

Asked: GET /values?readout=growth&item= `O=C1OC(c2ccccc2)=N/C1=C\c1ccc([N+](=O)[O-])cc1`
Given back: 106

Asked: GET /values?readout=growth&item= `Cc1nc2scc(-c3ccccc3)n2c(=O)c1CCO`
Given back: 100

Asked: GET /values?readout=growth&item= `CSc1nc(-c2cc3ccccc3o2)cc(-c2ccc(Cl)cc2)c1C#N`
Given back: 37.7

Asked: GET /values?readout=growth&item= CC(=O)C1CCC(C)=CC1=O (stereo not drawn)
Given back: 108

Asked: GET /values?readout=growth&item= `O=C(Nc1ccc(OCc2nnc(-c3ccc(Cl)cc3)o2)c(F)c1)Nc1ccc(Cl)c(Cl)c1`
Given back: 25.9

Asked: GET /values?readout=growth&item= CCCCn1c(=O)c(C2CNC(=O)c3ccccc3N2)cc2ccccc21 (stereo not drawn)
Given back: 99.7

Asked: GET /values?readout=growth&item= COc1c(NC[C@H]2OC(O)[C@H](O)[C@@H](O)[C@@H]2O)c(=O)c1=O (stereo partly drawn)
Given back: 113

Asked: GET /values?readout=growth&item= O=C(CC(O)c1ccncc1)c1ccccc1 (stereo not drawn)
Given back: -60.5

Asked: GET /values?readout=growth&item= `O=C1C2=C(C(=O)c3c(O)ccc(O)c31)N(c1cccnc1)Cc1ccccc1O2`
Given back: -89.5

Asked: GET /values?readout=growth&item= `CC/C(=C(\c1ccc(O)cc1)c1ccc(OCCN(C)CCN(C)C(=O)CCC(=O)c2c(C)[nH]c(/C=C3\N=C(c4ccc[nH]4)C=C3OC)c2C)cc1)c1ccccc1`
Given back: 89.1

Asked: GET /values?readout=growth&item= C#CCN1C(=O)/C(=c2\sc3n(c2=O)NC2C(N=3)N(CC)C(=O)N2CC)c2ccccc21 (stereo not drawn)
Given back: 23.1

Asked: GET /values?readout=growth&item= `Cc1nc2sccn2c1-c1csc(Nc2ccccc2Cl)n1`
Given back: 47.7

Asked: GET /values?readout=growth&item= `Cn1c(=O)c2c(nc3n2CCN(CCc2ccc(OCCN4CCOCC4)cc2)C3)n(C)c1=O`
Given back: 110

Asked: GET /values?readout=growth&item= `O=C(Cc1n[nH]c(=O)c2ccccc12)OCc1c(Cl)cccc1Cl`
Given back: 84.5

Asked: GET /values?readout=growth&item= `Cn1cc(C=O)c2ccccc21`
Given back: 106

Asked: GET /values?readout=growth&item= `CC(C)(C)OC(=O)N[C@@H](Cc1ccccc1)C(=O)N(Cc1ccccc1)C1(C(=O)NCc2ccccc2)CCN(Cc2ccccc2)CC1`
Given back: 48.5

Asked: GET /values?readout=growth&item= `COc1cc(OC)cc(-c2n[nH]nc2-c2ccc3c(c2)OCO3)c1`
Given back: 10

Asked: GET /values?readout=growth&item= `COc1ccc(OC)c(/C=C2\Oc3cc(OCCN4CCCC4)ccc3C2=O)c1`
Given back: 101

Asked: GET /values?readout=growth&item= `C=CCOc1cccc(/C=C/C(=O)c2sc(Nc3cccnc3)nc2C)c1`
Given back: 14.9

Asked: GET /values?readout=growth&item= O=C1NCC(c2cc3ccccc3[nH]c2=O)Nc2ccccc21 (stereo not drawn)
Given back: 111
